Values from PubChem BioAssay (NCI)

Tested on: SK-MEL-5 melanoma
Experiment description: NCI-60 one-dose screen, 48 h
Assay setup: 10 µM unless noted
Procedure: Growth inhibition of the SK-MEL-5 human tumor cell line is measured as a screen for anti-cancer activity. Cells are grown in 96 well plates and exposed to the test compound for 48 hours. Compounds are tested at a single concentration, which is 10^-5 M for most compounds. The reported endpoint is percent growth (GI% or GIPRCNT), where numbers from 0 - 100% represent growth inhibition, and numbers from -100% - 0 represent cell death. For example, a value of 40 represents 60% growth inhibition. […]
Compounds without any hit were thinned out: in the full panel of roughly 83,000, 20% have a hit. Calls of active or inactive are those of the source. The calls were made as follows: active = growth percent below 10; inactive = the rest.
Labels: YES = active, NO = inactive

1. CCN(CC)CCCCCCNc1cc(OC)c(Cl)c2cccnc12
NO
2. COc1ccc(-c2c(N)n[nH]c2-c2ccc(Cl)cc2O)cc1OC
NO
3. CCOc1c(C#N)nnc2c(C#N)c(NC(=O)c3ccccc3)nn12
NO
4. O=C(O)c1ccc2c(c1Cl)C(=O)c1ccccc1C2=O
NO
5. CCCCCCCCCCCCCCCCCCOc1ccc(CC(=O)OCC[N+]2(C)CCCC2)cc1
NO
6. Cc1ccc(-c2c(-c3ccccc3)c(=O)oc3ccc(C)cc23)cc1
NO
7. CCCCCCCOc1c(OC)cc(C2CC(=O)Nc3c2c(C)nn3-c2nc3ccccc3[nH]2)cc1OC (configuration not stated)
YES

====

Tested on: CAKI-1 renal
Experiment description: NCI-60 one-dose screen, 48 h
Assay setup: 10 µM unless noted
Protocol: Growth inhibition of the CAKI-1 human tumor cell line is measured as a screen for anti-cancer activity. Cells are grown in 96 well plates and exposed to the test compound for 48 hours. Compounds are tested at a single concentration, which is 10^-5 M for most compounds. The reported endpoint is percent growth (GI% or GIPRCNT), where numbers from 0 - 100% represent growth inhibition, and numbers from -100% - 0 represent cell death. For example, a value of 40 represents 60% growth inhibition. […]
This is part of a sample that, as a whole, favours compounds with a hit. Of some 83,000 tested, about 20% had one in any assay. Activity calls are given as the source filed them. Rule for the calls: active = growth percent below 10; inactive = the rest.
Labels: active, inactive

1) Cc1nc2ccccc2n1CC1NC(=O)NC1=O (configuration not stated)
inactive
2) COc1ccc(OC)c(-c2c(C#N)c(-c3ccc(Cl)cc3)nc3c2c(-c2ccccc2)nn3-c2ccccc2)c1
inactive
3) CC(C)(C)n1cc(-c2ccnc(NCCCNS(=O)(=O)c3ccccc3)c2)c(-c2ccccc2)n1
inactive
4) N#Cc1c(N)nc2c(C#N)c(NC(=O)c3ccccc3)nn2c1-c1ccccc1
inactive
5) CC/C=C\C/C=C\C[C@H](O)C/C=C1/C(=O)C=C[C@@H]1C/C=C\CCCC(=O)O
inactive
6) c1ccc2cc3nc4cc5ccccc5cc4nc3cc2c1
inactive
7) C=C(C)[C@@H]1CC[C@]2(C(=O)NC3CCCCC3)CC[C@]3(C)[C@H](CC[C@@H]4[C@@]5(C)CCCNC(C)(C)[C@@H]5CC[C@]43C)[C@@H]12
inactive
8) COc1cc(/C=N/NC(=O)Cn2c(C(C)C)nc3ccccc32)ccc1O
inactive
9) CC1(C)OC2C(CO[Si](C)(C)C(C)(C)C)OC(n3c(I)c(C#C[Si](C)(C)C)c(=O)[nH]c3=O)C2O1 (configuration not stated)
active
10) COc1ccc(/C=C/c2c(C(=O)/C=C/c3ccc(F)cc3)c(C)nc3ccccc23)cc1
inactive
11) CC1(C)CC(=O)C2=C(C1)N(c1ccc(OC(F)(F)F)cc1)C(N)=C(C#N)C2c1ccc(Cl)cc1 (configuration not stated)
inactive
12) CC(C)=C[C@@H]1c2c(c3ccccc3n(C)c2=O)O[C@H]2c3c(c4ccccc4n(C)c3=O)OC(C)(C)[C@@H]12
inactive
13) O=c1c2c3c(sc2n2c(-c4cc(-c5ccccc5)nn4-c4ccccc4)nnc2n1Cc1ccccc1)CCCC3
inactive
14) COc1ccc(-c2nc(SCC(=O)Nc3nc(-c4ccccc4)cs3)[nH]c(=O)c2C#N)cc1
inactive
15) Cc1c(C(=O)OC(=NC2CCCCC2)NC2CCCCC2)sc2c1c(=O)nc1c(C#N)n[nH]n12
inactive
16) CC1=NOC(=O)/C1=C\c1ccc(O)cc1
inactive
17) Cn1cc(-c2csc(-c3ccccc3)n2)c2cccnc21
active

====

Tested on: SK-MEL-28 melanoma
Experiment description: NCI-60 one-dose screen, 48 h (100 = growth as untreated, 0 = no growth, -100 = all killed)
Assay setup: 10 µM unless noted
This is part of a sample that, as a whole, favours compounds with a hit. Of some 83,000 tested, about 20% had one in any assay.
Think of 90% as a floor: if growth stands on it or above, it is YES; beneath it, NO.

1. COc1cc(OC)cc(C2CC(=O)Nc3c2c(C)nn3-c2nc3ccccc3[nH]2)c1 (stereo not drawn)
NO
2. COC(=O)/C=C1\S/C(=N\NS(=O)(=O)c2ccc(C)cc2)N(c2ccccc2)C1=O
YES
3. CC(C)(C)c1ccc(/C=C/C(=O)Nc2ccc(O)cc2)cc1
NO
4. COC(=O)c1ccc(CSc2nnc(-c3c(C)nc4ccc(C)cn34)o2)cc1
YES
5. C[n+]1cc2cc(C(N)=O)[nH]c3c(=N)c(Cl)c(N)c1c23
YES
6. NC(=O)c1ccc[n+](Cc2ccc(Cl)cc2Cl)c1
YES
7. CC1SC(c2ccc(OCc3ccccc3)cc2)N(NC(=O)C(O)(c2ccccc2)c2ccccc2)C1=O (stereo not drawn)
NO
8. CC(=O)[C@@H]1CC[C@]2(COS(=O)(=O)c3ccc(C)cc3)CC[C@]3(C)[C@H](CC[C@@H]4[C@@]5(C)CCCNC(C)(C)[C@@H]5CC[C@]43C)[C@@H]12
NO
9. CC1=NOC(=O)/C1=C\c1ccc(O)cc1
YES
10. COc1cc(C2CC(=O)Nc3c2c(C)nn3-c2nc3ccccc3[nH]2)c(OC)c(OC)c1OC (stereo not drawn)
NO
11. COc1ccccc1N1C(=O)/C(=C/C2=Cc3ccccc3OC2)SC1=S
YES
12. Cc1cccc(Cc2cnc(NC(=O)c3ccc4nnsc4c3)s2)c1
YES

====

System: A498 renal
Experiment description: NCI-60 one-dose screen, 48 h (100 = growth as untreated, 0 = no growth, -100 = all killed)
Assay setup: 10 µM unless noted
The panel holds about 83,000 compounds, 20% with a hit somewhere; the sample as a whole holds those more often.
growth strictly under 70% means fulfilled; at 70% or over means not fulfilled.

1) COc1cccc(-c2nc3sccn3c2-c2ccnc(NCCNS(=O)(=O)c3cccc(Cl)c3)c2)c1
fulfilled
2) CC(C)Sc1nc(NNC(N)=S)c(C#N)c(-c2ccc(F)cc2)n1
fulfilled
3) O=C(CCCCCCN1CC(=O)N2[C@@H](c3ccccc3Cl)c3[nH]c4ccccc4c3C[C@H]2C1=O)NO
not fulfilled
4) COC1=C(OC)C(=O)C(OC)=C(OC)C1=O
not fulfilled
5) O=C(CCc1nnc(CN(c2ccccc2)c2ccccc2)o1)c1nc2ccccc2[nH]1
not fulfilled
6) C[C@]12CC[C@@H]3c4cc(OC(F)F)c(O)cc4CC[C@H]3[C@@H]1CC[C@@H]2OS(N)(=O)=O
fulfilled
7) N#Cc1c(-c2cccc(Cl)c2)cc(-c2cccc(Cl)c2)[nH]c1=O
fulfilled
8) COc1cccc(-c2nn(-c3ccccc3)cc2-c2ccnc(NCCCNC(=O)c3ccc(F)cc3)c2)c1
fulfilled
9) C=C(C)[C@@H]1CC[C@]2(C)[C@H](CC=C3[C@@H]4CC(C)(C)CC[C@]4(C(N)=O)CC[C@]32C)[C@@]1(C)CCC#N
fulfilled
10) COC1=CC(=O)C[C@@H](C)[C@]12Oc1c(Cl)c(OC)cc(OC)c1C2=O
not fulfilled
11) COc1ccc(-c2nc3ccc4[nH]ncc4c3c3c2CCCC3)cc1B(O)O
fulfilled
12) Cc1ccc(N2CCN(C(=S)c3cccs3)CC2)cc1
not fulfilled
13) O=Cc1c[nH]c2ccc(-c3csc4ccccc34)cc12
fulfilled
14) Cc1cccc(NC(=O)CSc2nc3ccccc3[nH]2)c1
fulfilled

====

Test system: HT29 colon
Experiment description: NCI-60 one-dose screen, 48 h (100 = growth as untreated, 0 = no growth, -100 = all killed)
Assay setup: 10 µM unless noted
The panel holds about 83,000 compounds, 20% with a hit somewhere; the sample as a whole holds those more often.
Reported values of growth for individual entries
Outcome measure: growth (%)

1) Cc1nc2c(c(N3CCCc4ccccc43)n1)CCC2
3.44
2) Fc1cnc(NC2CC2)nc1-c1cnc2ccc(N3CCOCC3)cn12
0.985
3) CC(=O)OC[C@H]1OC(Sc2sc(C(=O)c3ccc(Br)cc3)c(N)c2-c2nc3ccccc3s2)[C@H](OC(C)=O)[C@@H](OC(C)=O)[C@@H]1OC(C)=O (some centres undefined)
63.1
4) COc1cc(/C=C/C(=O)N2CCN(C(=O)c3cc(OC)c(OC)c(OC)c3)CC2)ccc1OCCCN1C(=O)c2cccc3cccc(c23)C1=O
91.8
5) CCCCCCCCCOc1c(OC)cc(C2CC(=O)Nc3c2c(C)nn3-c2nc3ccccc3[nH]2)cc1OC (centres undefined)
-37.9
6) COc1ccc(-c2nc3ccc4[nH]ncc4c3c3c2CCCC3)cc1B(O)O
67.2
7) COC(=O)[C@H](CSC)N(C)C(=O)[C@@H]1CSSC[C@@H](NC(=O)c2nc3ccccc3cc2O)C(=O)NCC(=O)N1C
76.1
8) CCN(CC)CCCNc1ccc(Nc2ccc(OC)cc2)cc1
67.5
9) NC(=S)N/N=C/Cc1ccccc1
94.7
10) O=C(c1ccccc1)N1N=C(c2ccccc2)CC1c1nnc2n(Cc3ccccc3)c(=O)c3c4c(sc3n12)CCCC4 (centres undefined)
101
11) O=C(NC(CSSCC(NC(=O)c1ccccc1)C(=O)O)C(=O)O)c1ccccc1 (centres undefined)
103
12) COc1cc(/C=N/n2c(CN3CCOCC3)nc3ccccc3c2=O)cc(OC)c1OC
103
13) O=c1c2cc(F)ccc2sc2c(NCCCN3CCCC3)nc3ccccc3c12
5.1
14) CCOc1ccccc1-n1c(CN2CCN(C(=O)COc3ccc(CNCCCCCCN4C5CCCC4CC(OC(=O)Nc4cc(C)ccc4OC)C5)cc3)CC2)nc2ccccc2c1=O (centres undefined)
-85.6
15) Cc1ccc(C(=O)C2=C(O)C(=O)N(Cc3cccnc3)C2c2ccccc2F)o1 (centres undefined)
108
16) COc1cc(N=Nc2cc(Cc3ccc(N(C)C)cc3)c(N)cc2N(C)C)c2ncccc2c1
-65.4
17) C=C1C(=O)O[C@H]2[C@H]1CC/C(CNC(=O)/C=C/c1ccc(Cl)cc1Cl)=C\CC[C@@]1(C)O[C@@H]21
-58.4
18) COc1ccccc1CNCCCN1C(=O)c2ccc3c4c(ccc(c24)C1=O)C(=O)N(CCCNCCCCN)C3=O
-23.9
19) O=C(NCCCNc1cc(-c2cn(-c3ccccc3)nc2-c2cccc(O)c2)ccn1)c1ccc(F)cc1
0.339
20) N/C(=N\c1nc2ccccc2s1)NC(=O)Nc1cccc(Cl)c1
10.2
21) COc1cccc(-c2nn(-c3ccccc3)cc2-c2ccnc(NCCNC(=O)Nc3ccccc3)c2)c1
29.6
22) Cc1cc(NCc2cc(Nc3ccnc4cc(Cl)ccc34)ccc2F)nc(N2CCN(C)CC2)n1
-24.5
23) CC(=O)c1ccc(NCC(=O)Nc2ccccn2)cc1
109
24) CCSC1=NC2C(N(CC)C(=O)N2CC)N1/N=C/C=C/c1ccccc1[N+](=O)[O-] (centres undefined)
3.47
25) Cc1cc(NCc2cc(Nc3ccnc4cc(Cl)ccc34)ccc2F)nc(N2CCOCC2)n1
8.57
26) COc1cc(N2C(=O)c3nccnc3C2=O)cc(OC)c1OC
99.8
27) CCCCCCCCCCCCCCCCCCOc1ccc(CC(=O)OCC[N+]2(C)CCCC2)cc1
98.6
28) Cc1ccc(Cl)cc1NC(=O)c1cc2ccccc2cc1O
7.43
29) N#CCN1C(=O)C2C3=C(CCCC3)SC2N=C1CN1CCCC1 (centres undefined)
110
